Biological target: AnFAO_15309 (Aspergillus niger)
Type: biochemical
Conditions: 20 nM enzyme, 50 μM substrate, pH 7.0, 1 hr
Tag: Satisfied if measured relative activity, relative to FB3 (100% activity) is not below 4%, Not satisfied if it is.

{"Compound": "CCCN [propylamine]", "Measured Target": "AnFAO_15309 (Aspergillus niger)", "Qualitative Label": "Satisfied"}
{"Compound": "NCCc1c[nH]c2ccc(O)cc12 [serotonin]", "Measured Target": "AnFAO_15309 (Aspergillus niger)", "Qualitative Label": "Not satisfied"}
{"Compound": "NCc1ccccc1 [benzylamine]", "Measured Target": "AnFAO_15309 (Aspergillus niger)", "Qualitative Label": "Not satisfied"}
{"Compound": "NCCCNCCCCNCCCN [spermine]", "Measured Target": "AnFAO_15309 (Aspergillus niger)", "Qualitative Label": "Not satisfied"}
{"Compound": "NCCCCNCCCN [spermidine]", "Measured Target": "AnFAO_15309 (Aspergillus niger)", "Qualitative Label": "Not satisfied"}
{"Compound": "N[C@H]1C(O)O[C@H](CO)[C@@H](O)[C@@H]1O (stereo partly shown) [glucosamine]", "Measured Target": "AnFAO_15309 (Aspergillus niger)", "Qualitative Label": "Not satisfied"}

query: Test whether the compound CCCC[C@@H](C)[C@@H](OC(=O)CC(CC(=O)O)C(=O)O)[C@H](C[C@@H](C)C[C@H](O)CCCCCC[C@@H](O)[C@H](C)N)OC(=O)CC(CC(=O)O)C(=O)O (stereo partly shown) [FB3] records relative activity, relative to FB3 (100% activity) of 4% or higher.
result: Satisfied
